Sourced from paper doi:10.64898/2025.12.19.695307

study_target: SARS-CoV-2 wild-type RBD (SARS-CoV-2, UniProt P0DTC2)
assay_protocol: BLI
property: binding result

binder	property	meas_value
R1-32-AAM (R1-32-artificial-affinity-matured) (antibody, V domains shown) VH: EVQLVESGAEVKKPGSSVKVSCKASGGTFSSYFISWVRQAPGQGLEWMGGIIPILGIADYAEKFQGRVTITADKSTSTAYMELSSLRSEDTAVYYCARENGYSGYGAAYNFDLWGRGTLVTVSS VL: QSVLTQPPSVSGAPGQRVTISCTGSDSNIGAGYDVHWYQQLPGTAPKLLIYGNSNRPSGVPDRFSGSKSDTSASLAITGLQAEDEADYYCQSYDSSLSDSVFGGGTKLTVL	binding result	binds
R1-32 (antibody, V domains shown) VH: EVQLVESGAEVKKPGSSVKVSCKASGGTFSSYAISWVRQAPGQGLEWMGGIIPILGIANYAQKFQGRVTITADKSTSTAYMELSSLRSEDTAVYYCARENGYSGYGAAANFDLWGRGTLVTVSS VL: QSVLTQPPSVSGAPGQRVTISCTGSSSNIGAGYDVHWYQQLPGTAPKLLIYGNSNRPSGVPDRFSGSKSGTSASLAITGLQAEDEADYYCQSYDSSLSGSVFGGGTKLTVL	binding result	binds
C807 (antibody, V domains shown) VH: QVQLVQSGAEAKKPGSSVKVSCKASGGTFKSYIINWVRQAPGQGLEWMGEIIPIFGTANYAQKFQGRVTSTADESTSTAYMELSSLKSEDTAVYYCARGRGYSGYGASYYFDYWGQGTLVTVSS VL: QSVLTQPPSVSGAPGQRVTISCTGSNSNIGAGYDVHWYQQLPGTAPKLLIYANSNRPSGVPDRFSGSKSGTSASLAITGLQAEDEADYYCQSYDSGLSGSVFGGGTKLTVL	binding result	binds
